test system: Staphylococcus aureus; assay: Antibacterial activity against Staphylococcus aureus ATCC 29213 assessed as inhibition of bacterial growth by CLSI based continuous dilution method; format: functional
YES if MIC is below 800 µM. NO if not; exact matches included in NO.

| COMPOUND | LABEL |
| --- | --- |
| CCCO/N=C/c1cc(OC)c(OCC(O)Cn2c([N+](=O)[O-])cnc2C)c2c1CC1c3cc4c(cc3CCN1C2)OCO4 (stereo not drawn) | NO |
| CO/N=C/c1cc(OC)c(OCC(O)Cn2c([N+](=O)[O-])cnc2C)c2c1CC1c3cc4c(cc3CCN1C2)OCO4 (stereo not drawn) | NO |
| COc1cc(/C=N/OC(C)(C)C)c2c(c1OCC(O)Cn1c([N+](=O)[O-])cnc1C)CN1CCc3cc4c(cc3C1C2)OCO4 (stereo not drawn) | YES |
| CCn1cc(C(=O)O)c(=O)c2cc(F)c(N3CCNCC3)cc21 [NORFLOXACIN] | YES |
| Cc1ncc([N+](=O)[O-])n1CCO [METRONIDAZOLE] | NO |
| CCO/N=C/c1cc(OC)c(OCC(O)Cn2c([N+](=O)[O-])cnc2C)c2c1CC1c3cc4c(cc3CCN1C2)OCO4 (stereo not drawn) | NO |
| C=CCO/N=C/c1cc(OC)c(OCC(O)Cn2c([N+](=O)[O-])cnc2C)c2c1CC1c3cc4c(cc3CCN1C2)OCO4 (stereo not drawn) | YES |
| COc1ccc2cc3[n+](cc2c1OC)CCc1cc2c(cc1-3)OCO2 [BERBERINE] | YES |
| COc1cc(/C=N/OCc2ccccc2)c2c(c1OCC(O)Cn1c([N+](=O)[O-])cnc1C)CN1CCc3cc4c(cc3C1C2)OCO4 (stereo not drawn) | YES |
| CCCCO/N=C/c1cc(OC)c(OCC(O)Cn2c([N+](=O)[O-])cnc2C)c2c1CC1c3cc4c(cc3CCN1C2)OCO4 (stereo not drawn) | NO |
| COc1cc(/C=N/O)c2c(c1OCC(O)Cn1c([N+](=O)[O-])cnc1C)CN1CCc3cc4c(cc3C1C2)OCO4 (stereo not drawn) | YES |

* * *

test system: Staphylococcus aureus; test: Antibacterial activity against methicillin-resistant Staphylococcus aureus assessed as inhibition of bacterial growth by CLSI based continuous dilution method; type: functional
Y if MIC is below 100 µM. N if not; exact matches included in N.

| MOLECULE | TARGET_OR_TEST_SYSTEM | LABEL |
| --- | --- | --- |
| COc1cc(/C=N/OCc2ccccc2)c2c(c1OCC(O)Cn1c([N+](=O)[O-])cnc1C)CN1CCc3cc4c(cc3C1C2)OCO4 (stereo not drawn) | Staphylococcus aureus | Y |
| CCn1cc(C(=O)O)c(=O)c2cc(F)c(N3CCNCC3)cc21 [NORFLOXACIN] | Staphylococcus aureus | Y |
| CCCCO/N=C/c1cc(OC)c(OCC(O)Cn2c([N+](=O)[O-])cnc2C)c2c1CC1c3cc4c(cc3CCN1C2)OCO4 (stereo not drawn) | Staphylococcus aureus | N |
| COc1cc(/C=N/O)c2c(c1OCC(O)Cn1c([N+](=O)[O-])cnc1C)CN1CCc3cc4c(cc3C1C2)OCO4 (stereo not drawn) | Staphylococcus aureus | N |
| COc1cc(/C=N/OC(C)(C)C)c2c(c1OCC(O)Cn1c([N+](=O)[O-])cnc1C)CN1CCc3cc4c(cc3C1C2)OCO4 (stereo not drawn) | Staphylococcus aureus | Y |
| Cc1ncc([N+](=O)[O-])n1CCO [METRONIDAZOLE] | Staphylococcus aureus | N |
| CCCCCCO/N=C/c1cc(OC)c(OCC(O)Cn2c([N+](=O)[O-])cnc2C)c2c1CC1c3cc4c(cc3CCN1C2)OCO4 (stereo not drawn) | Staphylococcus aureus | N |
| CCCO/N=C/c1cc(OC)c(OCC(O)Cn2c([N+](=O)[O-])cnc2C)c2c1CC1c3cc4c(cc3CCN1C2)OCO4 (stereo not drawn) | Staphylococcus aureus | N |
| C=CCO/N=C/c1cc(OC)c(OCC(O)Cn2c([N+](=O)[O-])cnc2C)c2c1CC1c3cc4c(cc3CCN1C2)OCO4 (stereo not drawn) | Staphylococcus aureus | Y |
| COc1ccc2cc3[n+](cc2c1OC)CCc1cc2c(cc1-3)OCO2 [BERBERINE] | Staphylococcus aureus | N |
| CCO/N=C/c1cc(OC)c(OCC(O)Cn2c([N+](=O)[O-])cnc2C)c2c1CC1c3cc4c(cc3CCN1C2)OCO4 (stereo not drawn) | Staphylococcus aureus | N |
| CCCCCO/N=C/c1cc(OC)c(OCC(O)Cn2c([N+](=O)[O-])cnc2C)c2c1CC1c3cc4c(cc3CCN1C2)OCO4 (stereo not drawn) | Staphylococcus aureus | N |
| CO/N=C/c1cc(OC)c(OCC(O)Cn2c([N+](=O)[O-])cnc2C)c2c1CC1c3cc4c(cc3CCN1C2)OCO4 (stereo not drawn) | Staphylococcus aureus | N |

* * *

As shown below, each of these compounds has a reported log10 MIC value.
tested on: Pseudomonas aeruginosa; assay: Antibacterial activity against Pseudomonas aeruginosa ATCC 27853 assessed as inhibition of bacterial growth by CLSI based continuous dilution method; format: functional
RECORDED_METRIC: log10 MIC (log10 of the value in µM)

| COMPOUND | VALUE_MEASURED |
| --- | --- |
| CCCO/N=C/c1cc(OC)c(OCC(O)Cn2c([N+](=O)[O-])cnc2C)c2c1CC1c3cc4c(cc3CCN1C2)OCO4 (stereo not drawn) | 2.94 |
| CCCCCO/N=C/c1cc(OC)c(OCC(O)Cn2c([N+](=O)[O-])cnc2C)c2c1CC1c3cc4c(cc3CCN1C2)OCO4 (stereo not drawn) | 2.92 |
| COc1cc(/C=N/OC(C)(C)C)c2c(c1OCC(O)Cn1c([N+](=O)[O-])cnc1C)CN1CCc3cc4c(cc3C1C2)OCO4 (stereo not drawn) | 1.72 |
| Cc1ncc([N+](=O)[O-])n1CCO [METRONIDAZOLE] | 3.18 |
| CCO/N=C/c1cc(OC)c(OCC(O)Cn2c([N+](=O)[O-])cnc2C)c2c1CC1c3cc4c(cc3CCN1C2)OCO4 (stereo not drawn) | 2.95 |
| COc1cc(/C=N/OCc2ccccc2)c2c(c1OCC(O)Cn1c([N+](=O)[O-])cnc1C)CN1CCc3cc4c(cc3C1C2)OCO4 (stereo not drawn) | 2.30 |
| C=CCO/N=C/c1cc(OC)c(OCC(O)Cn2c([N+](=O)[O-])cnc2C)c2c1CC1c3cc4c(cc3CCN1C2)OCO4 (stereo not drawn) | 1.73 |
| CCCCCCO/N=C/c1cc(OC)c(OCC(O)Cn2c([N+](=O)[O-])cnc2C)c2c1CC1c3cc4c(cc3CCN1C2)OCO4 (stereo not drawn) | 2.91 |
| CCCCO/N=C/c1cc(OC)c(OCC(O)Cn2c([N+](=O)[O-])cnc2C)c2c1CC1c3cc4c(cc3CCN1C2)OCO4 (stereo not drawn) | 2.93 |
| COc1cc(/C=N/O)c2c(c1OCC(O)Cn1c([N+](=O)[O-])cnc1C)CN1CCc3cc4c(cc3C1C2)OCO4 (stereo not drawn) | 1.76 |
| CCn1cc(C(=O)O)c(=O)c2cc(F)c(N3CCNCC3)cc21 [NORFLOXACIN] | 1.08 |
| COc1ccc2cc3[n+](cc2c1OC)CCc1cc2c(cc1-3)OCO2 [BERBERINE] | 2.58 |
| CO/N=C/c1cc(OC)c(OCC(O)Cn2c([N+](=O)[O-])cnc2C)c2c1CC1c3cc4c(cc3CCN1C2)OCO4 (stereo not drawn) | 2.05 |

* * *

assay: Cytotoxicity against human HepG2 cells assessed as cell viability at 1 times MIC relative to control; type: toxicity, cell-based; conditions: read-out: Activity
RECORDED_METRIC: viability at 1 times MIC

| MOLECULE | VALUE_MEASURED |
| --- | --- |
| COc1cc(/C=N/OCc2ccccc2)c2c(c1OCC(O)Cn1c([N+](=O)[O-])cnc1C)CN1CCc3cc4c(cc3C1C2)OCO4 (stereo unspecified) | > 80% |

* * *

assay: Cytotoxicity against human HepG2 cells assessed as reduction in cell viability; format: toxicity, cell-based
pIC50: −log10 of the molar value.

| MOLECULE | pIC50 |
| --- | --- |
| COc1cc(/C=N/OCc2ccccc2)c2c(c1OCC(O)Cn1c([N+](=O)[O-])cnc1C)CN1CCc3cc4c(cc3C1C2)OCO4 (stereo unspecified) | < 4.30 |

* * *

tested on: Acinetobacter baumannii; experiment: Antibacterial activity against Acinetobacter baumannii assessed as inhibition of bacterial growth by CLSI based continuous dilution method; assay type: functional
RECORDED_METRIC: log10 of MIC (log10 of the value in µM)

| MOLECULE | log10 of MIC |
| --- | --- |
| C=CCO/N=C/c1cc(OC)c(OCC(O)Cn2c([N+](=O)[O-])cnc2C)c2c1CC1c3cc4c(cc3CCN1C2)OCO4 (stereo not drawn) | 2.33 |
| CCO/N=C/c1cc(OC)c(OCC(O)Cn2c([N+](=O)[O-])cnc2C)c2c1CC1c3cc4c(cc3CCN1C2)OCO4 (stereo not drawn) | 2.95 |
| CCCCCCO/N=C/c1cc(OC)c(OCC(O)Cn2c([N+](=O)[O-])cnc2C)c2c1CC1c3cc4c(cc3CCN1C2)OCO4 (stereo not drawn) | 2.91 |
| COc1cc(/C=N/O)c2c(c1OCC(O)Cn1c([N+](=O)[O-])cnc1C)CN1CCc3cc4c(cc3C1C2)OCO4 (stereo not drawn) | 1.76 |
| CO/N=C/c1cc(OC)c(OCC(O)Cn2c([N+](=O)[O-])cnc2C)c2c1CC1c3cc4c(cc3CCN1C2)OCO4 (stereo not drawn) | 2.96 |
| CCCCO/N=C/c1cc(OC)c(OCC(O)Cn2c([N+](=O)[O-])cnc2C)c2c1CC1c3cc4c(cc3CCN1C2)OCO4 (stereo not drawn) | 2.93 |
| COc1ccc2cc3[n+](cc2c1OC)CCc1cc2c(cc1-3)OCO2 | 2.28 |
| COc1cc(/C=N/OCc2ccccc2)c2c(c1OCC(O)Cn1c([N+](=O)[O-])cnc1C)CN1CCc3cc4c(cc3C1C2)OCO4 (stereo not drawn) | 1.38 |
| CCCCCO/N=C/c1cc(OC)c(OCC(O)Cn2c([N+](=O)[O-])cnc2C)c2c1CC1c3cc4c(cc3CCN1C2)OCO4 (stereo not drawn) | 2.31 |
| CCCO/N=C/c1cc(OC)c(OCC(O)Cn2c([N+](=O)[O-])cnc2C)c2c1CC1c3cc4c(cc3CCN1C2)OCO4 (stereo not drawn) | 2.94 |
| COc1cc(/C=N/OC(C)(C)C)c2c(c1OCC(O)Cn1c([N+](=O)[O-])cnc1C)CN1CCc3cc4c(cc3C1C2)OCO4 (stereo not drawn) | 2.32 |
| CCn1cc(C(=O)O)c(=O)c2cc(F)c(N3CCNCC3)cc21 | 1.40 |
| Cc1ncc([N+](=O)[O-])n1CCO | 3.18 |
